Origin of the recorded values: patent US7981903B2

# tested_on: NIH-3T3 cells overexpressing human IR (Homo sapiens, UniProt P06213)
# Construct: expressed in transfected cells; host or cells: NIH-3T3 (mouse fibroblasts)
# Sequence (P06213 28-1382): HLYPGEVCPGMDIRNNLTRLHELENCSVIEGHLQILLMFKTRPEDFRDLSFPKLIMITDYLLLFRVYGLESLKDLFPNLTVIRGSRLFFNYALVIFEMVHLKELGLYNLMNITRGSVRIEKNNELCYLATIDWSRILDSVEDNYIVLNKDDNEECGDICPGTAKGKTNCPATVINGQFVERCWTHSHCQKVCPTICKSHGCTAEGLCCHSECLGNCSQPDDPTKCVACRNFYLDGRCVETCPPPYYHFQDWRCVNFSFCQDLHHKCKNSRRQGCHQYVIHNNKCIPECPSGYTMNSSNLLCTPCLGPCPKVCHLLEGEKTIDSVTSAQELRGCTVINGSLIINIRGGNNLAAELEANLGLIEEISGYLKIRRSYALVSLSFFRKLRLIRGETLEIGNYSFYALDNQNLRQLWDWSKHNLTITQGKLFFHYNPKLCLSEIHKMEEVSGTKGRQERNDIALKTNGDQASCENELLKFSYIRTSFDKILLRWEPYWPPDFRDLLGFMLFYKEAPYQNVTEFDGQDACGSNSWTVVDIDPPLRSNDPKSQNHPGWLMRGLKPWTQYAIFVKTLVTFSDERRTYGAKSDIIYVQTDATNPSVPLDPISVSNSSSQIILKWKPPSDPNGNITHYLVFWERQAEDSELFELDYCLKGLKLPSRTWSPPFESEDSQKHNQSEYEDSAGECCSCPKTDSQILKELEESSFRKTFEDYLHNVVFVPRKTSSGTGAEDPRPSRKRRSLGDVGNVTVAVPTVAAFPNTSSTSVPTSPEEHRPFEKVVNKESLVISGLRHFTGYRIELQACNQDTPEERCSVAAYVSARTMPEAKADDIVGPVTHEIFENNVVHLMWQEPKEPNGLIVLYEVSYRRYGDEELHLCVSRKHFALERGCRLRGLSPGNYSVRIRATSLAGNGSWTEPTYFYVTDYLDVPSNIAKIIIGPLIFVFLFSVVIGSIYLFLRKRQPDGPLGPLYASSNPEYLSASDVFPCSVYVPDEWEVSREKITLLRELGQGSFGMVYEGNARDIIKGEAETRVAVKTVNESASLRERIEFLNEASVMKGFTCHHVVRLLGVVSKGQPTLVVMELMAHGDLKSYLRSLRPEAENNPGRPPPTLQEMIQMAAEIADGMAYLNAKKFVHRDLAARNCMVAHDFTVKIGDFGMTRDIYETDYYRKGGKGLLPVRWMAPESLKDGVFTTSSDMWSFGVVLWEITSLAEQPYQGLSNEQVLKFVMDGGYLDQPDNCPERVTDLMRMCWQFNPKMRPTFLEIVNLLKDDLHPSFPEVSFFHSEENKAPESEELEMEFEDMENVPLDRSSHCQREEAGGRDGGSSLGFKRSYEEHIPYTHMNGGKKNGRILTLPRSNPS
# experiment_notes: IR cellular autophosphorylation (DELFIA)
# Type: cell-based
# conditions_used: 2 h compound, insulin 3 ug/ml for 15 minutes, IC50 category
Recorded IC50 values for a group of compounds are listed next.

Worked examples, 2 compounds total:
compound: COc1cc2c(cc1Nc1nc(Nc3cccc(F)c3C(N)=O)c3c(C)c[nH]c3n1)N(C(=O)CN(C)C)CCC2
experimental_result: < 0.1 µM
//
compound: COc1cc(N2CCC(N3CC[C@H](F)C3)CC2)ccc1Nc1nc(Nc2cccc(F)c2C(N)=O)c2cc[nH]c2n1
experimental_result: 0.1 to 0.5 µM

Exercise: Item: `CNC(=O)c1c(F)cccc1Nc1nc(Nc2cc3c(cc2OC)CCN3C(=O)CN(C)C)nc2[nH]cc(F)c12` Test system: NIH-3T3 cells overexpressing human IR (Homo sapiens, UniProt P06213) Read-out: IC50 Value: ?
Key: 0.1 to 0.5 µM

Exercise: Consider next the compound `COc1cc(N2CCC(N3CCN(CCF)CC3)CC2)ccc1Nc1nc(Nc2cccc(F)c2C(N)=O)c2cc[nH]c2n1` in the same way.
Key: < 0.1 µM

Exercise: Consider next the compound `COc1cc2c(cc1Nc1nc(Nc3cccc(F)c3C(N)=O)c3cc[nH]c3n1)CN(C(C)C)CC2` in the same way.
Key: 0.1 to 0.5 µM

Exercise: Consider next the compound `COc1cc2c(cc1Nc1nc(Nc3cccc(F)c3C(N)=O)c3cc[nH]c3n1)N(C(=O)CN(C)C)[C@@H](C)C2` in the same way.
Key: < 0.1 µM

Exercise: Consider next the compound `COc1cc2c(cc1Nc1nc(Nc3cccc(F)c3C(N)=O)c3cc[nH]c3n1)N(C(=O)CCN1CCOCC1)CC2` in the same way.
Key: 0.1 to 0.5 µM
